System: E. coli
Experiment: Minimum bactericidal concentration (MBC)
Type: cell-based
Conditions: Escherichia coli
Quantity measured: MBC

| Molecule | Quantity measured | Assay value |
| --- | --- | --- |
| C/C(=N/c1ccc(F)cc1)c1ccc(/N=N\c2c[nH]c3ccc([N+](=O)[O-])cc23)cc1 [DS-16] | MBC | 62.5 µg/mL |
| CO/N=C(\C(=O)N[C@@H]1C(=O)N2C(C(=O)O)=C(COC(C)=O)CS[C@H]12)c1csc(N)n1 [CFT, cefotaxime, reference compound] | MBC | 15.6 µg/mL |
| CC(=O)NS(=O)(=O)c1ccc(/N=C(/C)c2ccc(/N=N\c3c[nH]c4ccc([N+](=O)[O-])cc34)cc2)cc1 [DS-15] | MBC | 125 µg/mL |
| C/C(=N/c1nnc(-c2ccc([N+](=O)[O-])cc2)s1)c1ccc(/N=N\c2c[nH]c3ccc([N+](=O)[O-])cc23)cc1 [DS-5] | MBC | 31.2 µg/mL |
| C/C(=N/c1nnc(-c2ccc([N+](=O)[O-])cc2Cl)s1)c1ccc(/N=N\c2c[nH]c3ccc([N+](=O)[O-])cc23)cc1 [DS-3] | MBC | 31.2 µg/mL |
| C/C(=N/c1cc(Cl)ccc1Cl)c1ccc(/N=N\c2c[nH]c3ccc([N+](=O)[O-])cc23)cc1 [DS-10] | MBC | 31.2 µg/mL |
| O=C(O)c1cn(C2CC2)c2cc(N3CCNCC3)c(F)cc2c1=O [CPR, ciprofloxacin, reference compound] | MBC | 31.2 µg/mL |
| C/C(=N/c1ccc(S(=O)(=O)Nc2ccccn2)cc1)c1ccc(/N=N\c2c[nH]c3ccccc23)cc1 [DS-11] | MBC | 62.5 µg/mL |
| CCc1nnc(/N=C(/C)c2ccc(/N=N\c3c[nH]c4ccccc34)cc2)s1 [DS-7] | MBC | 31.2 µg/mL |
| C/C(=N\Cc1ccco1)c1ccc(/N=N/c2c[nH]c3ccccc23)cc1 [DS-1] | MBC | 125 µg/mL |
| C/C(=N/c1c(C)n(C)n(-c2ccccc2)c1=O)c1ccc(/N=N\c2c[nH]c3ccc([N+](=O)[O-])cc23)cc1 [DS-6] | MBC | 3.9 to 7.81 µg/mL |
| C/C(=N/c1ncccn1)c1ccc(/N=N\c2c[nH]c3ccccc23)cc1 [DS-17] | MBC | 15.6 µg/mL |
| C/C(=N/c1ccc(Cl)cc1[N+](=O)[O-])c1ccc(/N=N\c2c[nH]c3ccccc23)cc1 [DS-13] | MBC | 3.9 to 7.81 µg/mL |
| CCOC(=O)c1c(/N=C(/C)c2ccc(/N=N\c3c[nH]c4ccccc34)cc2)sc2c1CCCC2 [DS-2] | MBC | 16.2 µg/mL |

###

System: A. fumigatus
Test: MIC by tube dilution method
Format: cell-based
Details: Aspergillus fumigatus, 168 h, 7 days at 25 °C, read-out: MIC

| Molecule | MIC, µg/mL |
| --- | --- |
| C/C(=N/c1nc2ccccc2s1)c1ccc(/N=N\c2c[nH]c3ccc([N+](=O)[O-])cc23)cc1 | 125 |
| C/C(=N/c1ccc(S(=O)(=O)Nc2ccccn2)cc1)c1ccc(/N=N\c2c[nH]c3ccccc23)cc1 | 62.5 |
| C/C(=N/c1c(C)n(C)n(-c2ccccc2)c1=O)c1ccc(/N=N\c2c[nH]c3ccc([N+](=O)[O-])cc23)cc1 | 31.2 |
| CC(=O)NS(=O)(=O)c1ccc(/N=C(/C)c2ccc(/N=N\c3c[nH]c4ccc([N+](=O)[O-])cc34)cc2)cc1 | 62.5 |
| C/C(=N/c1nnc(-c2ccc([N+](=O)[O-])cc2Cl)s1)c1ccc(/N=N\c2c[nH]c3ccc([N+](=O)[O-])cc23)cc1 | 15.6 |
| C/C(=N/CCNc1cccc2ccccc12)c1ccc(/N=N\c2c[nH]c3ccccc23)cc1 | 62.5 |
| C/C(=N/c1nnc(-c2ccc([N+](=O)[O-])cc2)s1)c1ccc(/N=N\c2c[nH]c3ccc([N+](=O)[O-])cc23)cc1 | 125 |
| C/C(=N\Cc1ccco1)c1ccc(/N=N/c2c[nH]c3ccccc23)cc1 | 62.5 |
| C/C(=N/c1ncccn1)c1ccc(/N=N\c2c[nH]c3ccccc23)cc1 | 31.2 |
| CCc1nnc(/N=C(/C)c2ccc(/N=N\c3c[nH]c4ccccc34)cc2)s1 | 62.5 |
| C/C(=N/c1ccc(F)cc1)c1ccc(/N=N\c2c[nH]c3ccc([N+](=O)[O-])cc23)cc1 | 31.2 |
| C/C(=N/c1ccc(Cl)cc1[N+](=O)[O-])c1ccc(/N=N\c2c[nH]c3ccccc23)cc1 | 31.2 |
| C/C(=N/c1ccc(C(=O)O)cc1)c1ccc(/N=N\c2c[nH]c3ccccc23)cc1 | 31.2 |
| CCOC(=O)c1c(/N=C(/C)c2ccc(/N=N\c3c[nH]c4ccccc34)cc2)sc2c1CCCC2 | 15.6 |
| OC(Cn1cncn1)(Cn1cncn1)c1ccc(F)cc1F [FLU, fluconazole, reference compound] | 7.81 |
| C/C(=N/c1cc(Cl)ccc1Cl)c1ccc(/N=N\c2c[nH]c3ccc([N+](=O)[O-])cc23)cc1 | 125 |
